Where do the numbers come from? From ChEMBL document CHEMBL1153132.

Species on record: Homo sapiens
experiment notes: Selectivity, ratio of Ki for human CB1 to Ki for human CB2
The threshold is inclusive: Ratio Ki of exactly 100 counts as satisfied; values below receive not satisfied.

Exercise: # bool: Ratio Ki of "CCC(C)(C)C(=O)Nc1cc2c(c(S(=O)(=O)N3CCOCC3)c1)CCC2" >= 100
Key: satisfied

Exercise: Continue with "CCCCC(C)(C)C(=O)Nc1cc(C)c(C)c(S(=O)(=O)N2CCOCC2)c1"
Key: satisfied

Exercise: Continue with "CCC(C)(C)C(=O)Nc1cc(C)c(C)c(S(=O)(=O)N2CCCCC2)c1"
Key: satisfied

Exercise: Continue with "Cc1cc(NC(=O)C2C(C)(C)C2(C)C)cc(S(=O)(=O)N2CCOCC2)c1C"
Key: not satisfied

Exercise: Continue with "CCCC(C)(C)C(=O)Nc1cc(C)c(C)c(S(=O)(=O)N2CCOCC2)c1"
Key: not satisfied

Exercise: Continue with "Cc1cc(NC(=O)C(C)(C(F)(F)F)C(F)(F)F)cc(S(=O)(=O)N2CCOCC2)c1C"
Key: satisfied

Exercise: Continue with "Cc1cc(NC(=O)C(C)(C)C)cc(S(=O)(=O)N2CCOCC2)c1C"
Key: not satisfied

Exercise: Continue with "CCC(C)(C)C(=O)Nc1cc(C)c(C)c(S(=O)(=O)N2CCOCC2)c1"
Key: satisfied

Exercise: Continue with "CCC(C)(C)C(=O)Nc1cc(C)c(C)c(S(=O)(=O)NCC2CC2)c1"
Key: not satisfied

Exercise: Continue with "CCC(C)(C)C(=O)Nc1cc(C)c(C)c(S(=O)(=O)N2CCCCCC2)c1"
Key: satisfied

----------
Answer each item with its documented Stability.
System: Liver microsomes
experiment notes: Metabolic stability in rat liver microsomes
Type: ADME, Microsome
// note: answer is a bare numeric in %

Exercise: Param readout= Stability; system= Liver microsomes; entry= "CCC(C)(C)C(=O)Nc1cc(C)c(C)c(S(=O)(=O)N2CCS(=O)(=O)CC2)c1" ; returns value.
Key: 10

Exercise: Continue with "Cc1cc(NC(=O)C(C)(C(F)(F)F)C(F)(F)F)cc(S(=O)(=O)N2CCOCC2)c1C"
Key: 22

Exercise: Continue with "CCC(C)(C)C(=O)Nc1cc2c(c(S(=O)(=O)N3CCOCC3)c1)CCCC2"
Key: 2

----------
experiment notes: Clearance in Sprague-Dawley rat at 1 mg/kg, iv
Format: ADME, organism-based
Design: dose 1 mg/kg, route intravenous
condition summary: in vivo
readout: clearance (mL/min/kg)
// note: answer is a bare numeric in mL/min/kg

Exercise: Name the recorded clearance for "CCC(C)(C)C(=O)Nc1cc(C)c(C)c(S(=O)(=O)N2CCOCC2)c1" .
Key: 70

----------
system under test: Cannabinoid receptor 2 (Homo sapiens, UniProt P34972)
Sequence (P34972 whole entry, looked up): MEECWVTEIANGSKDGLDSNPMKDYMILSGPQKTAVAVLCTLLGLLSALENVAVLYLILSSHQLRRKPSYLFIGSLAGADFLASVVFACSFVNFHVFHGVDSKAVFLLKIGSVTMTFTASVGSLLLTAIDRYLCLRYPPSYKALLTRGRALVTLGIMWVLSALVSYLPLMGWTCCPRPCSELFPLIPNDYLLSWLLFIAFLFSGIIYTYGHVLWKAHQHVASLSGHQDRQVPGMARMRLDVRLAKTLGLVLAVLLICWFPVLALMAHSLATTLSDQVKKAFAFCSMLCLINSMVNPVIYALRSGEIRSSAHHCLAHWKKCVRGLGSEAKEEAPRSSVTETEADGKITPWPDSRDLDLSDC
experiment notes: Inhibition of [3H]CP-55940 binding to human CB2 receptor at 10 uM
readout: inhibition (%)
// note: answer is a bare numeric in %

Exercise: Name the recorded inhibition for "CCC(C)(C)C(=O)Nc1cc(C)c(C)c(S(=O)(=O)N2CC[C@H](O)C2)c1" .
Key: 6.3

Exercise: Continue with "CCC(C)(C)C(=O)Nc1cc(S(=O)(=O)N2CCOCC2)cc(C)c1C"
Key: 15

Exercise: Continue with "CCC(C)(C)C(=O)Nc1cc(C)c(C)c(S(=O)(=O)N2CCS(=O)(=O)CC2)c1"
Key: 18

Exercise: Continue with "CCC(C)(C)C(=O)Nc1cc(C)c(C)c(S(=O)(=O)N2CCC[C@@H]2CO)c1"
Key: 8.3
